Listed molecules paired with reported growth
System: PC-3 prostate
Experimental details: NCI-60 one-dose screen, 48 h (100 = growth as untreated, 0 = no growth, -100 = all killed)
Assay context: 10 µM unless noted
About 83,000 compounds went through this panel and 20% of them were active in at least one assay; those are over-represented in the sample as a whole.
Assay metric: growth (%)

Molecule	Tested system	Experimental result
Cn1cc(-c2csc(-c3c[nH]c4ccc(F)cc34)n2)c2ccnc(Cl)c21	PC-3 prostate	62.1
CC(C)N1C(=O)/C(=c2\sc3n(c2=O)C2C(NN=3)N(C)C(=O)N2C)c2ccccc21 (centres undefined)	PC-3 prostate	55
CC1(C)CC[C@]23CC[C@]4(C)[C@H](CC[C@@H]5[C@@]6(C)C/C(=C/c7ccncc7)C(=O)C(C)(C)[C@@H]6CC[C@]54C)[C@H]2[C@H]1OC3	PC-3 prostate	51
COc1ccc(N2CCN(C(=O)c3sc4nc(C)c(Br)c(C)c4c3N)CC2)cc1	PC-3 prostate	81.9

* * *

Tested on: NCI-H322M lung
Experimental details: NCI-60 one-dose screen, 48 h (100 = growth as untreated, 0 = no growth, -100 = all killed)
Assay context: 10 µM unless noted
The panel holds about 83,000 compounds, 20% with a hit somewhere; the sample as a whole holds those more often. Activity calls are given as the source filed them. The calls were made as follows: active = growth percent below 10; inactive = the rest.

Item smiles	growth
CCN(CC)c1ccc(CNc2cc(C)nc3ccccc23)cc1	80.3% (inactive)
Cc1cccc(Oc2ccc(Nc3ncnc4ccc(NC(=O)CN5CCN(C)CC5)cc34)cc2Cl)c1	15.1% (inactive)
O=C(CCCCCCN1CC(=O)N2[C@H](c3ccc(Cl)cc3)c3[nH]c4ccccc4c3C[C@@H]2C1=O)NO	64.1% (inactive)
CNC(=O)c1cc(Oc2cccc3nc(NC(=O)Nc4cc(C(F)(F)F)ccc4Cl)ccc23)ccn1	101% (inactive)
COc1ccc(C(=S)N2CCN(c3ccc(Cl)cc3)CC2)cc1	89.3% (inactive)
O=C1Nc2c(C(=O)O)cccc2/C1=N/c1n[nH]c(=S)s1	95.6% (inactive)
C=C1C(=O)O[C@H]2[C@H]1CC/C(COC(=O)/C=C\C(=O)NCc1ccc(Cn3c(=O)sn(CCCCC)c3=O)cc1)=C\CC[C@@]1(C)O[C@@H]21	101% (inactive)
COc1ccc(-c2cc(-c3ccccc3)nc(N3CCN(CCNc4ccnc5cc(Cl)ccc45)CC3)n2)cc1	88% (inactive)
O=C1c2ccccc2C(=O)c2c1cc1c(c2[N+](=O)[O-])OCO1	46.9% (inactive)
N#C/C(=C\c1ccc([N+](=O)[O-])cc1)n1nnc2cc(F)c(F)cc21	72.5% (inactive)
O=C(/C=C/c1cccc(Cl)c1Cl)Nc1ncc(Cc2ccccc2Cl)s1	78.5% (inactive)
CC1(C)C(N)=Nc2cc(OCCCN3Cc4ccccc4C3)c(OCC3CC3)cc21	82.3% (inactive)
CCCCCCCCCCCCCOC(=O)c1c(C)[nH]c(/C=C2\N=C(c3ccc[nH]3)C=C2OC)c1C	32.7% (inactive)
COc1ccc(-c2ccc(-c3ccc(C(=N)N)nc3)s2)cc1Cl	15.7% (inactive)
Cc1cc2c(cc1C)N(C(=O)CCl)CC(=O)N2	95% (inactive)
COc1cc2nc3sc(C(=O)Nc4ccc(C(=O)OC(C)C)cc4)c(C(=O)Nc4ccc(Cl)cc4C)n3c(=O)c2cc1OC	68.5% (inactive)
O=C1/C(=C/c2ccccn2)NC(=S)N1c1ccccc1Cl	66.7% (inactive)
N[C@H]1CCC[C@@H]1NCCCCN1C(=O)c2cccc3cc([N+](=O)[O-])cc(c23)C1=O	53.4% (inactive)
O=C(CSc1nc(-c2ccccc2)cc(=O)[nH]1)Nc1nc(-c2ccccc2)cs1	93.4% (inactive)
COc1cc(/C=C/C(=O)/C=C(O)/C=C/c2ccc(OC(=O)C34CC5CC(CC(C5)C3)C4)c(OC)c2)ccc1OC(=O)C12CC3CC(CC(C3)C1)C2	102% (inactive)
CC/C(Cc1ccccc1)=C(\c1ccc(OCCCN(C)C)cc1)c1ccc(OC(=O)NCc2ccccc2)cc1	87.2% (inactive)
Oc1c(CN2CCOCC2)cc(COCc2ccccc2)c2cccnc12	14.7% (inactive)

* * *

System: NCI-H522 lung
Experimental details: NCI-60 one-dose screen, 48 h
Assay context: 10 µM unless noted
Compounds without any hit were thinned out: in the full panel of roughly 83,000, 20% have a hit. Active and inactive are the calls of the source. Rule for the calls: active = growth percent below 10; inactive = the rest.
Labels: Yes = active, No = inactive

Molecule	Assigned class
C/C(=N\O)c1ccc(NC(=O)CSc2nnc(-c3cc(-c4ccc(S(C)(=O)=O)cc4)nc4ccccc34)n2-c2ccccc2)cc1	No
O=C(NCc1cccc(CNC(=O)Nc2nc3ccccc3[nH]2)c1)Nc1nc2ccccc2[nH]1	Yes
NNCCc1ccc(NC(=O)CCCc2ccc(C(=O)Nc3ccccc3N)cc2)cc1	No
CC[N+]1(CC)CC[N+]2(CCCC(C)CC2)CC1 (stereo unspecified)	No
CCn1cc(CNc2ccc(C(=O)Nc3cc4cc(OC)c(OC)cc4c(C)n3)cc2)cn1	Yes
Cc1cccc(Oc2ccc(Nc3ncnc4ccc(NC(=O)CN5CCN(C)CC5)cc34)cc2Cl)c1	Yes

* * *

System: SW-620 colon
Experimental details: NCI-60 one-dose screen, 48 h
Assay context: 10 µM unless noted
The panel holds about 83,000 compounds, 20% with a hit somewhere; the sample as a whole holds those more often. The source made the active and inactive calls. Rule for the calls: active = growth percent below 10; inactive = the rest.
Labels: Yes (active), No (inactive)

Item smiles	Assigned class
Cc1c2ccncc2c(C)c2c1c1cc(CO)ccc1n2C	Yes
CCOC(=O)c1c(C)c2c(n1Cc1ccccc1)CSCC2=O	No
CCN(CC)CCN1C(=O)c2c(c(C)c3c(oc4ccc(O)cc43)c2C)C1=O	Yes
CCc1n(Cc2ccc3ccccc3n2)cc[n+]1Cc1ccc2ccccc2n1	No
Cc1cc(Nc2ccc(C(=O)N3CCCC3)cc2)nc(NCCCNc2ccnc3cc(Cl)ccc23)n1	No

* * *

Test system: U251 CNS
Experimental details: NCI-60 one-dose screen, 48 h (100 = growth as untreated, 0 = no growth, -100 = all killed)
Assay context: 10 µM unless noted
The panel holds about 83,000 compounds, 20% with a hit somewhere; the sample as a whole holds those more often.

Compound	Tested system	growth [%]
Cc1cc2c(cc1C)N(C(=O)CCl)CC(=O)N2	U251 CNS	14.4
O=C(Cn1nnc2ccccc21)N/N=C/c1c[nH]c2ccccc12	U251 CNS	39.5
O=C(CI)NC(=O)NC(=O)NCc1ccccc1	U251 CNS	84
C[C@H](C(=O)N(CCc1ccc(Cl)c(Cl)c1)Cc1cncs1)[C@@H]1CC[C@H](C[C@H](C)n2cc(CN3CCC(c4ccc(Cl)cc4)CC3)nn2)O1	U251 CNS	100
CCCn1cnc2c(c1=N)C(c1ccc(F)cc1)c1sc3c(F)cccc3c1O2 (configuration not stated)	U251 CNS	30.8
O=S(=O)(NCCCNc1nccc(-c2c(-c3cccc(F)c3)nc3occn23)n1)c1ccc(F)cc1	U251 CNS	56.1
O=P(O)(O)OCC1OC(n2cnc3c(NCc4ccco4)ncnc32)C(O)C1O (configuration not stated)	U251 CNS	38.3

* * *

Tested on: NCI/ADR-RES ovarian
Experimental details: NCI-60 one-dose screen, 48 h (100 = growth as untreated, 0 = no growth, -100 = all killed)
Assay context: 10 µM unless noted
About 83,000 compounds went through this panel and 20% of them were active in at least one assay; those are over-represented in the sample as a whole.
Assay metric: growth (%)

Item smiles	Experimental result
C#Cc1cccc(Nc2nc(C)nc3cc(NC(=O)CCl)ccc23)c1	-22
Cc1cc(Nc2ccc(C(=O)N3CCCC3)cc2)nc(NCCCNc2ccnc3cc(Cl)ccc23)n1	99.8
C#CCOc1cccc(-c2ncnc3cc(NC(=O)C=C)ccc23)c1	53.5
CS(=O)(=O)c1ccc(NC(=O)c2ccccc2)nc1	110
CC1(C)C(N)=Nc2cc(OCCCN3Cc4ccccc4C3)c(OCC3CC3)cc21	92.9
C/C(=N\O)[C@@H]1CC[C@]2(CO)CC[C@]3(C)[C@H](CC[C@@H]4[C@@]5(C)CCCNC(C)(C)[C@@H]5CC[C@]43C)[C@@H]12	96.6

* * *

Test system: T-47D breast
Experimental details: NCI-60 one-dose screen, 48 h (100 = growth as untreated, 0 = no growth, -100 = all killed)
Assay context: 10 µM unless noted
This is part of a sample that, as a whole, favours compounds with a hit. Of some 83,000 tested, about 20% had one in any assay. Calls of active or inactive are those of the source. Rule for the calls: active = growth percent below 10; inactive = the rest.

Compound	growth
O=C(Nc1ccccc1N1CCCC1=O)c1oc2ccc(F)cc2c1-c1cnn(-c2ccccc2)c1	35.4% [50 µM] (inactive)
CC1C(/C=N/NC(N)=S)C(C#N)(C#N)C1(C#N)C#N (stereo not given)	84.6% (inactive)
NC(=O)c1cccc([C@@H]2O[C@H](CO)[C@@H](O)[C@H]2O)c1	85.7% (inactive)
C=C(C)[C@@H]1CCC[C@]2(C(=O)O)CC[C@]3(C)[C@@H](CC[C@@H]4[C@@]5(C)C/C(=C/c6ccncc6)C(=O)C(C)(C)[C@@H]5CC[C@]43C)[C@@H]12	47.5% (inactive)
C=C1C(=O)O[C@H]2[C@H]1CC/C(COC(=O)/C=C\C(=O)NCc1ccc(Cn3c(=O)sn(CCCCC)c3=O)cc1)=C\CC[C@@]1(C)O[C@@H]21	71.7% (inactive)
O=C(Nc1cc(Cl)ccc1O)c1cccc(Nc2ccnc(C(F)(F)F)c2)c1	10.8% (inactive)
O=C1/C(=C/c2ccc(F)cc2)CN(C(=O)C(Cl)Cl)C/C1=C\c1ccc(F)cc1	-22.4% (active)
Nc1nc2c(c3ncccc13)C(c1cccc(Cl)c1)Cc1ncccc1-2 (stereo not given)	30.1% (inactive)
CCOc1c(OC)cc2c(c1O)C(=O)N[C@@H]1[C@@H](O)[C@@H](O)[C@H](O)C[C@@H]21	92.8% (inactive)
Ic1ccccc1I	107% (inactive)
CC/C(Cc1ccccc1)=C(\c1ccc(OCCCN(C)C)cc1)c1ccc(OC(=O)NCc2ccccc2)cc1	52.7% (inactive)
COc1ccc(/C=C/C(=O)c2ccc(NC(=O)CSc3nc4c([nH]3)c(=O)n(C)c(=O)n4C)cc2)cc1OC	76.9% (inactive)
Cc1ccc(NC(=O)Cn2c(Br)nc3c2c(=O)n(C)c(=O)n3C)cc1	-10.5% (active)
O=C1/C=C/[C@@H](O)[C@@H]2C[C@@H](O)C[C@H]2/C=C/CCC[C@H](CCO)O1	-17.8% (active)
COC(=O)c1c2c(c(C)[n+]([O-])c1C)C(=O)C(NCc1ccc(OC)cc1)=CC2=O	3.48% (active)
N#CSc1c[nH]c2cccc(/C=C/C(=O)/C=C(O)/C=C/c3cccc4[nH]cc(SC#N)c34)c12	-10.5% (active)
Cc1ccc(C=C2C(=O)NC(=O)NC2=O)cc1	113% (inactive)
O=C(NC(Cc1nnc2n(Cc3ccccc3)c(=O)c3c4c(sc3n12)CCCC4)c1ccccc1)c1ccccc1 (stereo not given)	102% (inactive)
CCCCNC(=O)Oc1ccc(/C(=C(/C)Cc2ccc(OC)cc2)c2ccc(OCCN3CCCCCC3)cc2)cc1	38.8% (inactive)
O=C(Cc1ccccc1)Nc1cccc(N=Cc2ccccc2O)c1	91.8% (inactive)
